In this section we review reported protein stability index values for a set of variants.
B1: DCAF4 (parent)
chain: PGIDRPGMLCSFRIPGAWSCAWSL

Variants of: B1
Assay: protein stability index of a GFP-peptide fusion (GPS, HEK-293T) (PSI 1-6); higher = more stable;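 further: lentivirally expressed fusions sorted by FACS into six bins by GFP to DsRed ratio, PSI derived from sequencing read proportions per bin multiplied by bin number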
Settings: c terminus: a fixed tail appended
Give a plain numeric answer without units written out.

Record PGIDRRGMLCSFRIPGAWSCAWSL [P6R] . Reported protein stability index: 3.89

So, PGIDRPGMLCSFRIPGAWSIAWSL [C20I] ? Its protein stability index was 2.77
